- ASSAYED_SYSTEM: T1, hmm.hTfRC (REGN2431), human transferrin receptor extracellular domain with hexahistidine-myc-myc tag (human, UniProt P02786 89-760)
- T1 construct: Monomeric recombinant protein, 79210 g/mol; also called hTFR-mmh; His-myc-myc-hTFRC ecto
- T1 sequence (P02786 other isoform, or with tags, fused parts or gaps): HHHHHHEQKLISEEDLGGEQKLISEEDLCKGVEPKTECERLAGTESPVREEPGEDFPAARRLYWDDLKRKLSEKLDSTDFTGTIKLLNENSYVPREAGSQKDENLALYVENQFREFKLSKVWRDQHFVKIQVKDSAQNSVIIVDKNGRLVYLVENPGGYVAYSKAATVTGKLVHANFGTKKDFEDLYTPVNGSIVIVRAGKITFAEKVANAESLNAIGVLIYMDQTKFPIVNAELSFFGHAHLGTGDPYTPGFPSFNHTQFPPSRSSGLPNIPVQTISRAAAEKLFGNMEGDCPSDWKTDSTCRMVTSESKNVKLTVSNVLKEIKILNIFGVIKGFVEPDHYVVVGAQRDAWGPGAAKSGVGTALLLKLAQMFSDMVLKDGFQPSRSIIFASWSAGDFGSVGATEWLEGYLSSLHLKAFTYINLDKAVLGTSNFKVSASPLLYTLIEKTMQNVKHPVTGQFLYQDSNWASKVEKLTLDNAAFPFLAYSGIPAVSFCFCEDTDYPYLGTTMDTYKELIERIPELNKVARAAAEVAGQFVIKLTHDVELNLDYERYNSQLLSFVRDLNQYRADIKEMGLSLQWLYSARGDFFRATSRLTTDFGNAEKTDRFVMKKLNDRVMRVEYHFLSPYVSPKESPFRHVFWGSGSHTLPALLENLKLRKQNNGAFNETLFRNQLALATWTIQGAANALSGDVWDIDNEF
- RUN_DESCRIPTION: SPR (Biacore), mAb captured on anti-human Fc, 100 nM hTFR-mmh, 25 C
MEASURED_QUANTITY: 100 nM Ag Bound (RU)
Answer with the number, then the unit.

Fill in: 100 nM Ag Bound (RU) of 69263 (antibody, human IgG1, kappa, V domains shown, Tested as bivalent human IgG1 from CHO primary supernatant) VH: EVQLVESGGGLVQPGRSLRLSCAVSGFTFDDYAMHWVRQAPGKGLEWVSGISWNSGTRGYADSVKGRFTISRDNAKNSLYLQMNSLRGEDTALYYCVKDITISPNYYGMDVWGQGTTVTVSS VL: DIQMTQSPSSLSASVGDRVTITCRASQDISHYSAWYQQKPGKLPNLLIYAASTLQSGVPSRFSGSGSGTDFSLTTSSLQPEDVATYYCQKYNSVPLTFGGGTKVEIKR is ___
150 RU

Same again, this time with 12812B (antibody, human IgG1, kappa, V domains shown, Tested as bivalent human IgG1 from CHO primary supernatant) VH: QVQLVQSGAEVKKPGSSVRVSCKASRGTFSSYAISWVRQAPGQGLEWMGGIIPIFGTANYAQKFLARVTITADESTSTAYMELSSLRSEDTAVYYCAREKGWNYFDYWGQGTLVTVSS VL: DIQMTQSPPSVSASVGDRVTITCRASQGISSWLAWYQQKPGKAPKLLIYAASSLQSGVPSRFSGSGSGTDFTLTISSLQPEDFATYYCQQANSFPRTFGQGTKVEIKR
11 RU
